Data origin, for the record: patent US12473295B2

- experiment_summary: Metabolic stability in mouse liver microsomes
- Assay type: in vitro ADME
- setup_conditions: mouse liver microsomes 0.5 mg/mL, 1 μM test compound, pH 7.4; read-out: Mouse LM Clint
Where a name gives a salt, the structure may show the parent alone.
We label by threshold. Values of microsomal CLint at 1 μM strictly beneath 20 µL/min/mg are Y. Values of 20 µL/min/mg and up are N.

Some entries whose results are on file:
compound	class
CCN(C(=O)c1cc(F)ccc1Oc1nncnc1N1CCC2(C1)CN([C@H](CCCN(C)C(COC)COC)C(C)C)C2)C(C)C [Compound 161, fumarate]	N
CCN(C(=O)c1cc(F)ccc1Oc1nncnc1N1CCC2(C1)CN([C@H](CCCN)C(C)C)C2)C(C)C [Compound 1, formate]	N
CCN(C(=O)c1cc(F)ccc1Oc1nncnc1N1CCC2(C1)CN([C@H](CCCN[C@H](C)COC)C(C)C)C2)C(C)C.O=C(O)/C=C/C(=O)O [Compound 112]	Y

Could you now consider this next compound?
In plain terms, does CC(C)[C@@H](CCCN(C)C)N1CC2(CCN(c3ncnnc3Oc3ccc(F)cc3C(=O)N(C(C)C)C(C)C)C2)C1 (single isomer, unassigned) [Compound 396] come in under 20 µL/min/mg for microsomal CLint at 1 μM?
Y

* * *

Assign IC50 to each entry below.
- assayed_target: hERG potassium channel (Homo sapiens (Human), UniProt Q12809)
- Sequence (Q12809 whole entry): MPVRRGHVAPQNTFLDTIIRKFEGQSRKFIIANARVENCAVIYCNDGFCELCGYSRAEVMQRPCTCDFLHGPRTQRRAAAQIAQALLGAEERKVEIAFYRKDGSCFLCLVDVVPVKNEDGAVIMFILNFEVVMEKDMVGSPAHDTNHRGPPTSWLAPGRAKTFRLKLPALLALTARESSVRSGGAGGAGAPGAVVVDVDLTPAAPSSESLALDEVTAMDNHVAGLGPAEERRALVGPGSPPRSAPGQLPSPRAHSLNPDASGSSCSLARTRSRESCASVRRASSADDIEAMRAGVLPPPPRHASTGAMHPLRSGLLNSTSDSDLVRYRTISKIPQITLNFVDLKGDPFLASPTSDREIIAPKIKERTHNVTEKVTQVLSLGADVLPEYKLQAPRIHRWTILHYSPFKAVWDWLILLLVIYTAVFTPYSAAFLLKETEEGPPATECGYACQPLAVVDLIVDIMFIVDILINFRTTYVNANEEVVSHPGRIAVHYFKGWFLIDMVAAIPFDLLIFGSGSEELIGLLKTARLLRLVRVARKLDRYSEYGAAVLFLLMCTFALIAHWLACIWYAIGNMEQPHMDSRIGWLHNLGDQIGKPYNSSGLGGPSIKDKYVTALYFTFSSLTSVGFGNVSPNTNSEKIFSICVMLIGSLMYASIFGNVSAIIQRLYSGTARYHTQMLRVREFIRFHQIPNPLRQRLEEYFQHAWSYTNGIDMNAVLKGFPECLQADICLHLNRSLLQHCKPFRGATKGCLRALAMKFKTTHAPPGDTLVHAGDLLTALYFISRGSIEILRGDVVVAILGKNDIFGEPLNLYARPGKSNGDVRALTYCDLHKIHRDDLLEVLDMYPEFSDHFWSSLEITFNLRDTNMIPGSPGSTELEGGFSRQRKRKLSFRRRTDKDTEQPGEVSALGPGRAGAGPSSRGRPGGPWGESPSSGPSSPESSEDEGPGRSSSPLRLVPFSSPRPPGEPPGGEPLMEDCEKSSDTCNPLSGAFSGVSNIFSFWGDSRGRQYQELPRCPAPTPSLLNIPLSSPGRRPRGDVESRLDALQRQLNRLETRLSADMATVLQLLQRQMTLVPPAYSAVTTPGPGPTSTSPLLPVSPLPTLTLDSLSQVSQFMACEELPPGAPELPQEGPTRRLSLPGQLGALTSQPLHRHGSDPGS
- experiment_summary: Effect on membrane potassium current IKr in hERG transfected CHO cells, Protocol 1 (QPatch)
- Type: cell-based
Where a name gives a salt, the structure may show the parent alone.

molecule	assayed_target	assay_value
CCN(C(=O)c1cc(F)ccc1Oc1nncnc1N1CCC2(C1)CN([C@H](CCCNCCC(F)(F)F)C(C)C)C2)C(C)C	hERG potassium channel (Homo sapiens (Human), UniProt Q12809)	20 µM
CCOCCN(C)CCC[C@H](C(C)C)N1CC2(CCN(c3ncnnc3Oc3ccc(F)cc3C(=O)N(CC)C(C)C)C2)C1 [Compound 258, oxalate]	hERG potassium channel (Homo sapiens (Human), UniProt Q12809)	> 30.2 µM
CC(C)[C@@H](CCC(C)(C)N)N1CC2(CCN(c3ncnnc3Oc3ccc(F)cc3-c3cncnc3C3CC3)C2)C1 (single isomer, unassigned)	hERG potassium channel (Homo sapiens (Human), UniProt Q12809)	> 30.2 µM

Please give IC50 for each item listed below.
1. CC(C)[C@@H](CCCN(C)C)N1CC2(CCN(c3ncnnc3Oc3ccc(F)cc3C(=O)N(C(C)C)C(C)C)C2)C1 (single isomer, unassigned)
2. CCN(C(=O)c1cc(F)ccc1Oc1nncnc1N1CCC2(C1)CN(C(CCCNCCS(C)(=O)=O)C(C)C)C2)C(C)C (stereo not drawn)
3. CCN(C(=O)c1cc(F)ccc1Oc1nncnc1N1CCC2(C1)CN([C@H](CCCO)C(C)C)C2)C(C)C (single isomer, unassigned)

["> 30.2 µM", "> 30.2 µM", "> 30.2 µM"]

* * *

Assign bioavailability to each entry below.
- experiment_summary: Mouse PK (in vivo T1/2 and oral bioavailability)
- setup_conditions: fasted male CD-1 mice, single PO 5 mg/kg, formulating agent HP-β-CD
Give bare numbers, in %.

compound	readout_name	assay_value
CCN(C(=O)c1cc(F)ccc1Oc1nncnc1N1CCC2(C1)CN([C@H](CCCNCCC(F)F)C(C)C)C2)C(C)C.O=C(O)/C=C/C(=O)O [Compound 114]	bioavailability	8.7

In the following, a different compound is considered.
Answer with the recorded bioavailability of CCN(C(=O)c1cc(F)ccc1Oc1nncnc1N1CCC2(C1)CN([C@H](CCCNCC(OC)OC)C(C)C)C2)C(C)C.O=C(O)/C=C/C(=O)O [Compound 104] only.
6.1

* * *

- Test system: iCell Cardiomyocytes2
- experiment_summary: Ca2+-fluorescence assay in human pluripotent stem cell-derived cardiomyocytes (CTCM human), iCell Cardiomyocytes2
- Type: cell-based
- Design: key: Green: No concern; Yellow: Low concern; Red: High concern; Black: Very high concern due to arrhythmic events
- setup_conditions: iCell Cardiomyocytes2, 30 μM, 30 min
readout_name: Color @ 30 μM (hazard score)

compound	assayed_target	assay_value
CCN(C(=O)c1cc(F)ccc1Oc1nncnc1N1CCC2(C1)CN([C@H](CCCNCCOC)C(C)C)C2)C(C)C [Compound 11]	iCell Cardiomyocytes2	Green
CCN(C(=O)c1cc(F)ccc1Oc1nncnc1N1CCC2(C1)CN([C@H](CCCNC)C(C)C)C2)C(C)C [Compound 398]	iCell Cardiomyocytes2	Green
CCN(C(=O)c1cc(F)ccc1Oc1nncnc1N1CCC2(C1)CN([C@H](CCCN(C)CCO)C(C)C)C2)C(C)C [Compound 286]	iCell Cardiomyocytes2	Green

* * *

- assayed_target: menin/MLL (terbium chelate-labeled menin, FITC-MBM1 peptide) (Homo sapiens (Human))
- Sequence (O00255 other isoform, or with tags, fused parts or gaps): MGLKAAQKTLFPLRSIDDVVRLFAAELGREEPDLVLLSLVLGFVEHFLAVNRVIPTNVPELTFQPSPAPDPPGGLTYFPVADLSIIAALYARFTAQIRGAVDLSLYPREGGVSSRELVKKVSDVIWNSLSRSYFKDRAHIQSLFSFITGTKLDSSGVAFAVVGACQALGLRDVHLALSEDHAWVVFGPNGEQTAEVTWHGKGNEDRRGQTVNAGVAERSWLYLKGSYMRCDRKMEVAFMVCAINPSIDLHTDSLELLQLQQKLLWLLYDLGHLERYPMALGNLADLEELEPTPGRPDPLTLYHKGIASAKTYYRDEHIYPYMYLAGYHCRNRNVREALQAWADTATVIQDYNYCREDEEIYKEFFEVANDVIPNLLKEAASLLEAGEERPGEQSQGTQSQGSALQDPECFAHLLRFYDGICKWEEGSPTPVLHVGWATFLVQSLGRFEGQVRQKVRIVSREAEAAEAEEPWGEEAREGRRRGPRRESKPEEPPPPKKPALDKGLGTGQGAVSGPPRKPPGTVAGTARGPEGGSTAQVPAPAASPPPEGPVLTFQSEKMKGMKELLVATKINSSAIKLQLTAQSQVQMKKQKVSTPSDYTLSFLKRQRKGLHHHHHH
- experiment_summary: Menin/MLL homogenous time-resolved fluorescence (HTRF) assay;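 further: IC50 from percent inhibition of HTRF signal, normalized between wells without competitor and wells with a saturating competitor that displaces FITC-MBM1 from His-tagged menin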
- Assay type: binding
- setup_conditions: HTRF-30 min incubation IC50, 30 min incubation
Structures can show the parent of a compound that is named as a salt.
readout_name: pIC50
One number for each entry, as −log10 of the molar value.

compound	assayed_target	pIC50
CCN(C(=O)c1cc(F)ccc1Oc1nncnc1N1CCC2(C1)CN([C@H](CCCN(C)[C@H](CO)COC)C(C)C)C2)C(C)C	menin/MLL (terbium chelate-labeled menin, FITC-MBM1 peptide) (Homo sapiens (Human))	10.22

Please give pIC50 for each item listed below.
1. CCN(C(=O)c1cc(F)ccc1Oc1nncnc1N1CCC2(C1)CN([C@@H](CCCN)C(C)C)C2)C(C)C [Compound 2, formate]
2. CCN(C(=O)c1cc(F)ccc1Oc1nncnc1N1CCC2(C1)CN([C@H](CCCNC(=O)OC)C(C)C)C2)C(C)C
3. CCN(CC)C[C@H](O)C[C@@H](C(C)C)N1CC2(CCN(c3ncnnc3Oc3ccc(F)cc3C(=O)N(CC)C(C)C)C2)C1 (single isomer, unassigned)
4. CCN(C)C[C@@H](O)C[C@H](C(C)C)N1CC2(CCN(c3ncnnc3Oc3ccc(F)cc3C(=O)N(C(C)C)C(C)C)C2)C1 (single isomer, unassigned)
5. CCN(C(=O)c1cc(F)ccc1Oc1nncnc1N1CCC2(C1)CN([C@H](CCNC(C)C)C(C)C)C2)C(C)C (single isomer, unassigned)
6. CCN(C(=O)c1cc(F)ccc1Oc1nncnc1N1CCC2(C1)CN([C@H](CCCN(C)C(COC)COC)C(C)C)C2)C(C)C [Compound 161, fumarate]
7. CCN(C(=O)c1cc(F)ccc1Oc1nncnc1N1CCC2(C1)CN([C@H](CCN(C)CCCOC)C(C)C)C2)C(C)C (single isomer, unassigned)

1. 8.48
2. 9.74
3. 9.68
4. 9.05
5. 9.43
6. 9.64
7. 9.18

Please give pIC50 for each item listed below.
1. CCN(C(=O)c1cc(F)ccc1Oc1nncnc1N1CCC2(C1)CN([C@H](CCCN(C)CC(F)(F)F)C(C)C)C2)C(C)C
2. CCN(C(=O)c1cc(F)ccc1Oc1nncnc1N1CCC2(C1)CN([C@H](C[C@H](O)CN(C)CCOC)C(C)C)C2)C(C)C (single isomer, unassigned)

1: 7.98; 2: 10.11

Please give pIC50 for each item listed below.
1. CC(C)[C@H](C[C@H](O)CN(C)C)N1CC2(CCN(c3ncnnc3Oc3ccc(F)cc3C(=O)N(C(C)C)C(C)C)C2)C1 (single isomer, unassigned)
2. CCN(C(=O)c1cc(F)ccc1Oc1nncnc1N1CCC2(C1)CN([C@H](CCCN(C)CCC(=O)N(C)C)C(C)C)C2)C(C)C [Compound 246, formate]

1. 8.74
2. 10.20

* * *

Assign microsomal CLint at 1 μM to each entry below.
- experiment_summary: Metabolic stability in human liver microsomes
- Format: in vitro ADME
- setup_conditions: human liver microsomes 0.5 mg/mL, 1 μM test compound, pH 7.4; read-out: Human LM Clint
- Experimental: 4) Metabolic Stability in Human/Mouse Liver Microsomes The objective of this study is to measure in vitro metabolic stability of test compound(s) in human and mouse liver microsomes and provide quantitative information on the rate of metabolic turnover (i.e. determination of the apparent intrinsic clearance of test). Test items were prepared at a stock concentration of 10 mM in DMSO. […] The in vitro half-life (in vitro tin) was determined from the slope value: in vitro t1/2=−(0.693/k) […]
Structures can show the parent of a compound that is named as a salt.
Give bare numbers, in µL/min/mg.

compound	unit_of_measurement	assay_value
CCN(C(=O)c1cc(F)ccc1Oc1nncnc1N1CCC2(C1)CN([C@H](CCCNCC(OC)OC)C(C)C)C2)C(C)C.O=C(O)/C=C/C(=O)O [Compound 104, fumarate]	µL/min/mg	19
CC(C)[C@@H](CCCN(C)C)N1CC2(CCN(c3ncnnc3Oc3ccc(F)cc3C(=O)N(C(C)C)C(C)C)C2)C1 (single isomer, unassigned)	µL/min/mg	22
CCN(C(=O)c1cc(F)ccc1Oc1nncnc1N1CCC2(C1)CN([C@H](CCCNC(C)=O)C(C)C)C2)C(C)C [Compound 6, formate]	µL/min/mg	35
CCN(C(=O)c1cc(F)ccc1Oc1nncnc1N1CCC2(C1)CN([C@H](CCCN(C)CCC#N)C(C)C)C2)C(C)C	µL/min/mg	75
CCN(C(=O)c1cc(F)ccc1Oc1nncnc1N1CCC2(C1)CN([C@H](CCCN[C@H](C)COC)C(C)C)C2)C(C)C.O=C(O)/C=C/C(=O)O	µL/min/mg	17

In the following, a different compound is considered.
Answer with the recorded microsomal CLint at 1 μM of COCCNCCC[C@H](C(C)C)N1CC2(CCN(c3ncnnc3Oc3ccc(F)cc3C(=O)N(C(C)C)C(C)C)C2)C1 (single isomer, unassigned) only.
27
